All figures here come from patent US20240228512A1.

- Test system: H1975 cells
- Test: H1975 CTG proliferation assay
- Format: cell-based
- Condition Notes: Homo sapiens, NCI-H1975, H1975, CTG
pIC50: −log10 of the molar value.
Label label 0 if pIC50 falls below 7; label label 1 in every other case.

Req: pIC50 >= 7 for C#Cc1cccc2cc(O)cc(-c3nc4c5c(nc(OCC67CCN6CC(F)(F)C7)nc5c3F)N([C@H](C)c3cccnc3N)CCO4)c12 (stereo partly drawn) [Example 1] ?
Resp: label 1

Req: Here is the next molecule: C#Cc1cccc2cc(O)cc(-c3nc4c5c(nc(OC[C@@H]6CC[C@H]7COCCN76)nc5c3F)N([C@H](C)c3cccnc3N)CCO4)c12 [Example 17]
Resp: label 1

Req: Here is the next molecule: Cc1nc(N)cc(-c2nc3c4c(nc(OC[C@@]56CCCN5C[C@H](F)C6)nc4c2Cl)N([C@H](C)c2cccnc2N)CCO3)c1C(F)(F)F [Example 626]
Resp: label 0

Req: Here is the next molecule: Cc1cc(N)nc(-c2nc3c4c(nc(OC[C@@]56CCCN5C[C@H](F)C6)nc4c2F)N(C(C)c2scnc2N)CCO3)c1C(F)(F)F (stereo partly drawn) [Example 607]
Resp: label 1

Req: Here is the next molecule: C#Cc1cccc2nc(N)cc(-c3nc4c5c(nc(OC[C@@]67CCCN6C[C@H](F)C7)nc5c3F)N([C@H](C)c3cccnc3N)CCO4)c12 [Example 30]
Resp: label 1
